system: CCRF-CEM; test: NCI tumour cell line growth inhibition, 48 h
Calls of active or inactive are those of the source. Cut-off read from the data, not from the text of the source: active = GI50 up to about 1.1 µM and inactive = higher.
I'd appreciate it if you could supply GI50 values for the items below.

# compound, recordedEndpoint, experimentalValue
rows = [
    ("CCOC(=O)N1CCN(c2c(N)nc(C)nc2O)CC1", "GI50", "> 100 µM (inactive)"),
    ("COc1ccc(/C=C/C(=O)CC(=O)/C=C/c2ccc(OC)cc2)cc1", "GI50", "20.9 µM (inactive)"),
    ("COc1ccc(/C=C2/C(=O)N(C(=O)c3ccccc3O)N=C2C)cc1OC", "GI50", "0.337 µM (active)"),
]

Give GI50 for each listed item.
1. COC(=O)C1=C(OC(=O)/C=C/c2ccc(Cl)cc2)C(C(=O)OC)[C@@]2(O)[C@@H](C(=O)OC)[C@H](C)C[C@@H]1[C@@H]2C(=O)OC (some centres not stated)
2. C/C(=N/NC(=S)Nc1ccc(C)cc1)c1ccccn1
3. CCN(CC)c1ccc2cc(C(N)=S)c(=N)oc2c1
4. CCC1(c2ccccc2)C(=O)N=C(c2ccccc2)N1CCc1ccccc1 (configuration not stated)
5. CN(C)Cc1cc(/N=N/c2ccccc2Cl)ccc1O
6. Cc1cc(=O)oc2c(C)c3oc(CBr)c(Br)c3cc12

**Result**
1. 13.2 µM (inactive)
2. < 0.0124 µM (active)
3. > 100 µM (inactive)
4. > 100 µM (inactive)
5. 17.4 µM (inactive)
6. 10.4 µM (inactive)

These measurements were taken from ChEMBL document CHEMBL1201862.
